TARGET ENTITY: T1, hCMV gB (expressed in HEK293T cells) (human cytomegalovirus, UniProt P06473 32-906)
T1 construct: whole, on cells; also called envelope glycoprotein B; UL55
T1 sequence (P06473 32-906 limits assumed): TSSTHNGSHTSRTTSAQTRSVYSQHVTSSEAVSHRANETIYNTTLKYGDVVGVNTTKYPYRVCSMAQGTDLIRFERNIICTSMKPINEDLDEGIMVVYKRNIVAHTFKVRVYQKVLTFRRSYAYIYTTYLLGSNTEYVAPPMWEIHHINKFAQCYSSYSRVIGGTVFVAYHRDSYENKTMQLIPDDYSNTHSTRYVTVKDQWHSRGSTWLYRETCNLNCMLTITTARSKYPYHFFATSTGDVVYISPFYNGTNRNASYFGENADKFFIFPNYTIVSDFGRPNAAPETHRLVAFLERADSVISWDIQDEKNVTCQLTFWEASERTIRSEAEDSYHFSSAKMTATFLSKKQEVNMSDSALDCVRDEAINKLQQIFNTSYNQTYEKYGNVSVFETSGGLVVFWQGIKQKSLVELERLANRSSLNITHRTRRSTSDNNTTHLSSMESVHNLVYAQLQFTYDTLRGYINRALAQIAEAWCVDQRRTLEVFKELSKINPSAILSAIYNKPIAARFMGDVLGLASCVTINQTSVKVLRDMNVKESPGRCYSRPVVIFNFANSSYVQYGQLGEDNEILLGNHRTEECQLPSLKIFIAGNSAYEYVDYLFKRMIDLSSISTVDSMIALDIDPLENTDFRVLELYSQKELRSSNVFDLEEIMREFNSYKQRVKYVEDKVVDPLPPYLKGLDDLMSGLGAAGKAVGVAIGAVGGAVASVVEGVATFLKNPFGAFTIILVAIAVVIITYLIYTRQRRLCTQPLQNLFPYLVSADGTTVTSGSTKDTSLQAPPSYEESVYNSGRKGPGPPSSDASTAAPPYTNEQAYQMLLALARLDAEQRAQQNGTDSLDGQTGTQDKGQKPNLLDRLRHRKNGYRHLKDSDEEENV
ASSAY METHOD TEXT: competitor: 5F1-biotin; cell staining
QUANTITY KIND: Inhibition of binding (%)

query: Give a short answer stating reported Inhibition of binding (%) for 4H9 (antibody, V domains shown, human IgG; also called 4H9-biotin) VH: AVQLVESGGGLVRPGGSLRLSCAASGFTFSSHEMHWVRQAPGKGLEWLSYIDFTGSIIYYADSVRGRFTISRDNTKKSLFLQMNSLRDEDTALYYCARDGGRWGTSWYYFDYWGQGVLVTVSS VL: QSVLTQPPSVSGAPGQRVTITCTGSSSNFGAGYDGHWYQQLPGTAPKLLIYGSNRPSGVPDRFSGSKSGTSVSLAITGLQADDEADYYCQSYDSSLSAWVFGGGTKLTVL .
result: 100%

query: Give a short answer stating reported Inhibition of binding (%) for 5F1 (antibody, V domains shown, human IgG; also called 5F1-biotin) VH: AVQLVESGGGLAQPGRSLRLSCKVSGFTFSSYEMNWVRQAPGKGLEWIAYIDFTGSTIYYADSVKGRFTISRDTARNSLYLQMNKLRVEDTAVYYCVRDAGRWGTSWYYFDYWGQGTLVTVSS VL: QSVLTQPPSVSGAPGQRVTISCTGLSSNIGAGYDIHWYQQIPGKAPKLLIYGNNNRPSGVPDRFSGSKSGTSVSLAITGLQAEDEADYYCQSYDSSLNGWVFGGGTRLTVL .
result: 100%

query: Give a short answer stating reported Inhibition of binding (%) for 10C6 (antibody, V domains shown, human IgG; also called 10C6-biotin) VH: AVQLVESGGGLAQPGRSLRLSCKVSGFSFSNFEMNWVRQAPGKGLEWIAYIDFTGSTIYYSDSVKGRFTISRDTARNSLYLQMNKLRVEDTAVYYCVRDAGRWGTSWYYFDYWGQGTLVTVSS VL: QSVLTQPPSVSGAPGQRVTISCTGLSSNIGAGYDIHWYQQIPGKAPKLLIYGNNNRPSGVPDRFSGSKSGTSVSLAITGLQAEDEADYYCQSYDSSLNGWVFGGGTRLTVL .
result: 100%
